pIC50: −log10 of the molar value.
The compounds below each have a reported pIC50 tested on human PDE10A2 (Homo sapiens (Human), UniProt Q9Y233); the values come from various publications.
MEASUREMENT TYPE: pIC50

CC1CCCN1C(=O)c1ccncc1NC(=O)c1nc(C2CC2)ccc1Nc1cncnc1 (stereo not shown) : 6.94

P = CC1(C)C(=O)N([C@H]2C[C@H](Nc3ccc(Br)cn3)C2)c2ncccc21
Q = Cc1cc(C)n2nc(CCc3nc(N4CCC4)nn3C)nc2n1
R = Cn1ncc(C(=O)N2CCC2)c1C(=O)Nc1ccn2cc(-c3cccc(OCCF)c3)nc2n1
Which order do these items take when sorted by rising pIC50? List them. Output spec: a listing of the labels in the requested order.
Q, R, P
(Q: 7.04, R: 7.54, P: 9.58)

---

pIC50: −log10 of the molar value.
The compounds below each have a reported pIC50 tested on UniProt:Q9Y233; the values come from various publications.
MEASUREMENT TYPE: pIC50

The following compounds have reported results that may help.
Cc1cc(CNC(=O)c2cnn(C)c2C(=O)Nc2ccn3cc(-c4ccccc4)nc3n2)no1 : 6.79
COc1ccc2nc(N[C@H]3C[C@H](N4C(=O)C(C)(C)c5nccnc54)C3)sc2c1 : 8.38
COc1cccn2nc(CCc3nc(-c4ccccc4)nn3C)nc12 : 6.25
Cc1nc2ccc(SCc3nc(N4CCCC4)nn3C)nn2c1C : 6.25
Cc1cc2nc(CCc3nc4c(C)ncc(C)n4n3)ccc2cc1F : 8.06
Cc1nn2cc(C3CC3)cnc2c1C(=O)NC1(c2ccc3ccccc3n2)CCOCC1 : 5.83
Cn1ncc(C(=O)NCc2nc3ccccc3o2)c1C(=O)Nc1ccn2cc(-c3ccccc3)nc2n1 : 6.01
Cc1ncc(C)n2nc(CCc3cn(C)c(-c4cccs4)n3)nc12 : 9.00

A = COc1ccc(C)n2nc(CCc3nc(-c4cccs4)cn3C)nc12
B = CC1CC(c2nnc3c(N)nccn23)CC(F)(F)C1 (single isomer, unassigned)
Returns the identifier with the smallest measured pIC50 among A and B . Output the label that corresponds to your choice.
B
(B: 4.80, A: 8.82)

---

The compounds below each have a reported IC50 tested on human PDE10A2 (Homo sapiens (Human), UniProt Q9Y233); the values come from various publications.
MEASUREMENT TYPE: IC50 (nM)

COC1CCN(c2nc3ccc(NC(=O)c4c(C(=O)N5CCOCC5)cnn4C)cn3n2)C1 (stereo not drawn) : 23.1
CNC(=O)c1c(NC(=O)c2nc(CC(C)C)ncc2Nc2cncnc2)cnn1C : 12.8
CC1(NC(=O)c2ncccc2NC(=O)c2nc(C3CC3)cnc2Nc2cncnc2)COC1 : 0.4
COCCOc1ccc(Cl)c(-c2nnc3c(C)nc4ccc(C)nc4n23)c1 : 5100
Cc1ncc(C)n2nc(CCc3c[nH]c(-c4cscn4)n3)nc12 : 3.5

A = CNC(=O)c1nn(CC2CC2)cc1NC(=O)c1nc(C2CC2)ccc1Nc1cncnc1
B = COc1nc(N)c2nnn(C3CCCCC3)c2n1
Between the two listed entries A and B , which has its IC50 at the higher number? Output the label that corresponds to your choice.
B
(B: 2970 nM, A: 495 nM)

---

The molecules below each have a reported IC50 tested on UniProtKB Q9Y233; the values come from various publications.
MEASUREMENT TYPE: IC50 (nM)

Cc1cccn2nc(CCc3nc(-c4cccs4)cn3C)nc12 : 15
CCC(C)n1ncc(Cl)c1C(=O)Nc1ccn2cc(-c3ccccc3)nc2n1 (stereo not shown) : 105
CNC(=O)c1c(NC(=O)c2nc(C3CC3)cnc2Nc2cncnc2)ccc(C)c1C : 54.3
FC(F)(F)c1nc2cccnc2n1[C@H]1C[C@H](Nc2nc3ccccc3s2)C1 : 4.82
Cn1cc(-c2ccncc2)c(-c2ccc(OCc3nc4ncccc4n3C)cc2)n1 : 9.31
CC1(NC(=O)c2ccncc2NC(=O)c2nc(C3CC3)cnc2Nc2cncnc2)COC1 : 5.8
Cn1c(COc2ccc(-n3nccc3-c3ccncc3)cc2)nc2ccccc21 : 3.05
Cc1cccn2nc(CCc3nc(-c4cccnc4)c[nH]3)nc12 : 64
Cc1ncc(C)n2nc(CCc3ccc4cc5c(cc4n3)OCO5)nc12 : 13
Cc1cn2nc(CCc3nc(N4CCCC4)nn3C)ccc2n1 : 146

1 = Cc1cc2nc(CCc3nc(N4CCCC4)nn3C)nn2c(C)n1
2 = Cc1c(C(F)(F)F)nc2ccc(OCc3nc(N4CCCC4)nn3C)nn12
3 = O=C(Nc1cc(-c2ccccn2)nn1Cc1ccccc1)c1nc(C2CC2)ccc1Nc1cncnc1
4 = Cc1nc2c3c(c(CCc4nc(N5CCCC5)nn4C)nn2c1C)CCCC3
5 = COCCn1nc(-c2ccccc2)nc1CCc1nc2c(C)ncc(C)n2n1
Which order do these items take when sorted by rising IC50? List them. Output spec: a listing of the labels in the requested order.
3, 4, 5, 1, 2
(3: 2 nM, 4: 6 nM, 5: 14 nM, 1: 58.8 nM, 2: 290 nM)

---

The molecules below each have a reported IC50 tested on human PDE10A2 (Homo sapiens (Human), UniProt Q9Y233); the values come from various publications.
MEASUREMENT TYPE: IC50 (nM)

The following molecules have reported results that may help.
CN(CCO)C(=O)c1ccncc1NC(=O)c1nc(C2CC2)ccc1Nc1cncnc1 : 18.9
Cc1nc2cc(C3CCC3)c(C#Cc3nc(N4CCCC4)nn3C)nn2c1C : 0.6
Cc1ccc(C)n2nc(CCc3nc(-c4cccs4)cn3C)nc12 : 1

P = Cc1c(-c2ccc(-c3ccccc3CNc3ccccc3)cc2)nc2ccc(F)cc2c1CO
Q = CCc1cnc(N)c2nnc(N3CCCC(C)(C)C3)n12
R = CC(=O)Oc1cccc(-c2cn3ccc(NC(=O)c4c(C(=O)N5CCC5)cnn4C)nc3n2)c1
S = O=C(Nc1ccn2cc(-c3ccccc3)nc2n1)c1ccnc(Cl)c1
Descending sort on IC50 required. Output spec: a listing of the labels in the requested order.
Q, S, P, R

---

The molecules below each have a reported pIC50 tested on human PDE10A2 (Homo sapiens (Human)); the values come from various publications.
pIC50: −log10 of the molar value.
MEASUREMENT TYPE: pIC50

The following molecules have reported results that may help.
CNC(=O)c1c(NC(=O)c2nc(C(C)C)ncc2Nc2ccc(F)cc2)cnn1C : 6.33
O=C(NC1CC1)c1ccsc1NC(=O)c1nc(C2CC2)ccc1Nc1cncnc1 : 9.30
COc1cc(CCc2nc3c(C)ncc(C)n3n2)nc2ccc(F)cc12 : 7.85
CC1(C)C(=O)N(C2CCN(c3nc4ccc(F)cc4s3)CC2)c2ncccc21 : 8.46
Cn1cc(NC(=O)c2nc(C3CC3)ccc2Nc2cncnc2)c(C(=O)N2CC(O)C2)n1 : 7.50
CC1(C)CCCC(c2nnc3c(N)nccn23)C1 (single isomer, unassigned) : 4.99

P = CC(C)(CO)NC(=O)c1ccncc1NC(=O)c1nc(C2CC2)cnc1Nc1cncnc1
Q = Cc1nc2cccnc2n2c(-c3cc(C4(O)CCC4)ccc3F)nnc12
R = Cc1nc2ccc(OCc3nc(-c4ccccc4)nn3C)nn2c1C
S = Cc1ncc(C)n2nc(/C=C/c3nc(N4CCCC4=O)cn3-c3ccccc3)nc12
Which order do these items take when sorted by rising pIC50? List them. Output spec: a listing of the labels in the requested order.
Q, R, S, P

I = Cc1nc2cccnc2n2c(-c3cc(OC(C)C4CCOCC4)ccc3Cl)nnc12 (stereo not shown)
II = Cc1ncc(C)n2nc(/C=C/c3nc(N4CCCC4=O)cn3C3CC3)nc12
III = Cc1nn2cc(C3CC3)cnc2c1C(=O)NC1(c2ccc(C(F)(F)F)cn2)CCOCC1O (racemic)
IV = O=c1[nH]c2cncnc2n1[C@H]1C[C@H](Nc2nc3ccccc3s2)C1
Descending sort on pIC50 required. Output spec: a listing of the labels in the requested order.
IV, II, I, III
(IV: 8.52, II: 7.09, I: 5.71, III: 5.01)

P = CC(C)(O)CNC(=O)c1c(NC(=O)c2nc(C3CC3)cnc2Nc2cncnc2)cnn1CC1CCOC1 (stereo not shown)
Q = CC(C)NC(=O)c1cnn(C)c1C(=O)Nc1ccn2cc(-c3ccccc3)nc2n1
Between the two listed entries P and Q , which has its pIC50 at the higher number? Output the label that corresponds to your choice.
P
(P: 7.82, Q: 7.09)

---

The compounds below each have a reported IC50 tested on human PDE10A2 (Homo sapiens (Human)); the values come from various publications.
MEASUREMENT TYPE: IC50 (nM)

The following compounds have reported results that may help.
O=c1[nH]c2cccnc2n1[C@H]1CC[C@H](Nc2nc3cc(F)ccc3s2)CC1 : 152
Cc1ncc(C)n2nc(CCc3ccc4ccc(Cl)cc4n3)nc12 : 52

A = CNC(=O)c1nc(C2CCCO2)ccc1NC(=O)c1nc(C2CC2)cnc1Nc1cncnc1 (stereo not shown)
B = O=C1N([C@H]2C[C@H](Nc3nc4ccccc4s3)C2)c2ncc(F)cc2C12CC2
Returns the identifier with the smallest measured IC50 among A and B . Output the label that corresponds to your choice.
B
(B: 0.0768 nM, A: 0.2 nM)
